Items are presented alongside their recorded minimum inhibitory concentration.
tested on: Mannheimia haemolytica; test: minimum inhibitory concentration (MIC); details: isolate (source animal id): 324
Kindly provide the numeric value in µg/mL only, without the unit symbol.

// below: answered compounds
- CS(=O)(=O)c1ccc([C@@H](O)[C@@H](CF)NC(=O)C(Cl)Cl)cc1: 2
- C=C[C@]1(C)C[C@@H](OC(=O)CSCCN(CC)CC)[C@]2(C)[C@H](C)CC[C@]3(CCC(=O)[C@H]32)[C@@H](C)[C@@H]1O: 32

Consider now this further compound.
Problem: What measured minimum inhibitory concentration goes with `CN1C[C@@H]2C[C@H]1CN2c1cc2c(cc1F)c(=O)c(C(=O)O)cn2C1CC1` ?
Result: 0.5
